The values you see were collected from paper PMC11062922.

target: PKN3 (Homo sapiens, UniProt Q6P5Z2); assay: NanoBRET in-cell target engagement in HEK293T cells: PKN3; format: cell-based; set-up: full-length PKN3, CSNK2A1 or CSNK2A2 ORF; host or cells: HEK293T; settings: biological replicate number 2; read-out: Rep 2 IC50 NanoBRET PKN3;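 note: Full-length PKN3 with C-terminal NanoLuc expressed in HEK293T cells, serial inhibitor dilutions competing against Kinase Tracer K5 at 500 nM, BRET read after 2 h at 37 °C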
Sequence (Q6P5Z2 whole entry): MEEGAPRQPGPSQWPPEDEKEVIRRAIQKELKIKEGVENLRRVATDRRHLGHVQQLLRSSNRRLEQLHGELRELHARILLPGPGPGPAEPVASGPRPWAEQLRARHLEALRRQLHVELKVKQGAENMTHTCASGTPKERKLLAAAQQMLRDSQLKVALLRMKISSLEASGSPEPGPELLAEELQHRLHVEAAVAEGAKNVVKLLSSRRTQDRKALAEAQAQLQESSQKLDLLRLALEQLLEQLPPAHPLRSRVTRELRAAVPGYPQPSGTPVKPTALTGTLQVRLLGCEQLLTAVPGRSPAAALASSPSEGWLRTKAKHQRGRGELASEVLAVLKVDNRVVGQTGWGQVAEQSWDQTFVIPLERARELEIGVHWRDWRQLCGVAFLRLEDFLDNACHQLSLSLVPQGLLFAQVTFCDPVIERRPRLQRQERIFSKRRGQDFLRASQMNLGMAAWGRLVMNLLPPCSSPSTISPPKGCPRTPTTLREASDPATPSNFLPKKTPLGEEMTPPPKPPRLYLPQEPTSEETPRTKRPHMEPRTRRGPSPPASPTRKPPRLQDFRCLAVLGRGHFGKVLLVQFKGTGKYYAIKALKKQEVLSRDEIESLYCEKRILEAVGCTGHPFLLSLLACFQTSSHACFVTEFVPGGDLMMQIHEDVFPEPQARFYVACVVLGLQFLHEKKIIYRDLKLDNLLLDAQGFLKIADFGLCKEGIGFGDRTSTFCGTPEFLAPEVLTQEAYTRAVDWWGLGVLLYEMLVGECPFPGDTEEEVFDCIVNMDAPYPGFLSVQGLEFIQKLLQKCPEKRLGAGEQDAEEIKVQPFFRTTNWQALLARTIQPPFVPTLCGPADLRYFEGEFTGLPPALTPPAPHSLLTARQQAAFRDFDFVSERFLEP
measured_quantity: log10 of IC50 (log10 of the value in nM)

| compound | readout_value |
| --- | --- |
| Cc1cccc2c(-c3ccncn3)c(-c3ccc(F)cc3)nn12 [GW515532X] | 2.96 |
| CCn1c(-c2nonc2N)nc2c(C#CC(C)(C)O)nc(OC[C@@H](N)c3ccccc3)cc21 [GSK938890A] | 1.49 |
| ON=C1CCc2cc(-c3nc(C4CCNCC4)[nH]c3-c3ccncc3)ccc21 [SB-614067-R] | 4.31 |
| Fc1ccc(-c2c(-c3ccncc3)[nH]c3cccnc23)cc1 [RO1153853-000] | 2.98 |
| CCn1c(-c2nonc2N)nc2c(C#CC(C)(C)O)nc(OCCN)cc21 [GSK902056A] | 1.75 |
| COc1cccc2c(-c3ccncc3)c(-c3ccc(F)cc3)nn12 [GW468513X] | 2.74 |
| Cc1cccc(-c2nc(Nc3ccncc3)c3sccc3n2)n1 [GW869641X] | 2.67 |
| CCn1c(-c2nonc2N)nc2c(-c3ccccc3)ncc(OCCCN)c21 [GSK260205A] | 0.79 |
| CCn1c(-c2nonc2N)nc2c(C#CCN)ncc(OCCCN)c21 [GSK561866B] | 4.05 |
| NCc1ccc(-c2nc(-c3ccncc3)c(-c3ccc(Cl)c(O)c3)[nH]2)cc1 [SB-476429-A] | 2.32 |
| CNc1ncc2cc(-c3cc(NC(=O)NCCC(C)(C)C)c(F)cc3C)c(C)nc2n1 [LY3009120, reference compound] | 3.09 |
| CCn1c(-c2nonc2N)nc2c(C#CC(C)(C)O)nc(CN3CCCC3)cc21 [GSK1000163A] | 3.96 |
| CCn1c(-c2nonc2N)nc2c(C#CC(C)(C)O)nc(OCCNC)cc21 [GSK949675A] | 2.64 |

----------
tested on: endogenous kinases and other proteins enriched by Kinobeads from mixed lysates of K-562, COLO-205, MV-4-11, SK-N-BE(2) and OVCAR-8; experiment: Kinobeads competition binding profiling, two doses (100 nM and 1 µM); design: species or system human; conditions: in words;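 note: inhibitor preincubated 45 min at 4 °C in cell lysate, then bead pulldown. Bound protein quantified by label-free mass spectrometry relative to DMSO vehicle control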
measured_quantity: selectivity in the Kinobeads assay (CATDSmost potent)

| compound | readout_value |
| --- | --- |
| CCOc1cc(C(=O)N2CCC(N3CCN(C)CC3)CC2)ccc1Nc1ncc2c(n1)N(C1CCCC1)c1ccccc1C(=O)N2C [ERK5-IN-1, reference compound] | very selective |
| O=C(O[C@H]1CN[C@H](C#Cc2cc3ncnc(Nc4ccc(OCc5cccc(F)c5)c(Cl)c4)c3s2)C1)N1CCOCC1 [GW869810X] | very selective |

----------
Target: endogenous kinases and other proteins enriched by Kinobeads from mixed cancer cell lysates (Homo sapiens, UniProt Q96L34)
Construct: endogenous in cells
Sequence (Q96L34 1-752): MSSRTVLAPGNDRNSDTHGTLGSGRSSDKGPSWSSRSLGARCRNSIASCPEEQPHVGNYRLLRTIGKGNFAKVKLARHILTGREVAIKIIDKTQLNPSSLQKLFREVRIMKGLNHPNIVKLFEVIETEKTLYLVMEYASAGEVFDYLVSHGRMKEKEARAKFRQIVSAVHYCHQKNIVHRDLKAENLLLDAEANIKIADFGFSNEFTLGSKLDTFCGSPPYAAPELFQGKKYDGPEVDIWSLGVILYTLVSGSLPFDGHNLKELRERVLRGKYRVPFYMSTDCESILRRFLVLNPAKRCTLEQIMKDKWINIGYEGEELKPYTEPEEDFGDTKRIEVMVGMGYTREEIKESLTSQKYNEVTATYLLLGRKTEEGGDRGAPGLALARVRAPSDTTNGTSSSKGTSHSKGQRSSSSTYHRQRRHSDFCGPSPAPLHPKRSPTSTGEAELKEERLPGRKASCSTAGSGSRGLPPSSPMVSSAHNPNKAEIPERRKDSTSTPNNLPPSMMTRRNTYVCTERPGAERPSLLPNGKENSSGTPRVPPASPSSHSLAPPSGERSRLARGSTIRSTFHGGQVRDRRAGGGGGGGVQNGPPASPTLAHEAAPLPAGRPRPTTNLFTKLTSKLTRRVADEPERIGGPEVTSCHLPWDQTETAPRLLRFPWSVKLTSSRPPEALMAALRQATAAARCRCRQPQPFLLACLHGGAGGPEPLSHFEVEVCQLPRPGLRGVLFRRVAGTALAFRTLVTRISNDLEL
Experiment: Kinobeads pulldown, full dose-response (eight doses)
Settings: target MARK4
pEC50: −log10 of the molar value.

| smiles_string | pEC50 |
| --- | --- |
| Cn1cc(-c2nc(N[C@@H]3CCCC[C@@H]3N)c(F)c3c2C(=O)NC3)cn1 | 5.98 |

----------
molecular target: endogenous kinases and other proteins enriched by Kinobeads from mixed cancer cell lysates (Homo sapiens, UniProt O15530); construct: endogenous in cells; assay: Kinobeads pulldown, full dose-response (eight doses); conditions: target PDPK1;PDPK2P; read-out: apparent Kd
Sequence (O15530 whole entry): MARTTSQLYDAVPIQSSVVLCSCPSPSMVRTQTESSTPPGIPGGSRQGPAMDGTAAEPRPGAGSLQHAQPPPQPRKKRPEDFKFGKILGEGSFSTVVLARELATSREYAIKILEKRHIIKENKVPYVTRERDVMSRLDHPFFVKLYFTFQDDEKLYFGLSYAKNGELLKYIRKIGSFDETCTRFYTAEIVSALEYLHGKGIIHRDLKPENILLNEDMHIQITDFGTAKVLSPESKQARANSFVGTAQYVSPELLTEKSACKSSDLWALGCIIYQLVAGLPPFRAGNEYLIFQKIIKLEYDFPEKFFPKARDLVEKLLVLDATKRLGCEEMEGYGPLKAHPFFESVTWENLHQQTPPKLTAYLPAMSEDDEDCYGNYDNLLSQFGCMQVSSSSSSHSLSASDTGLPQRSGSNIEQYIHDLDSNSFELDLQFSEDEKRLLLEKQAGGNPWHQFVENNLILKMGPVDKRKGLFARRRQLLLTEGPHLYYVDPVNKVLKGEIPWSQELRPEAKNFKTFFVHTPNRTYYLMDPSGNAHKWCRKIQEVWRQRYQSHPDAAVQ
pKd: −log10 of the molar value.
measured_quantity: pKd

| smiles_string | readout_value |
| --- | --- |
| Cn1cc(-c2nc(N[C@@H]3CCCC[C@@H]3N)c(F)c3c2C(=O)NC3)cn1 | 6.19 |

----------
Molecular target: endogenous kinases and other proteins enriched by Kinobeads from mixed cancer cell lysates (Homo sapiens, UniProt O94806)
Construct: endogenous in cells
Sequence (O94806 1-890): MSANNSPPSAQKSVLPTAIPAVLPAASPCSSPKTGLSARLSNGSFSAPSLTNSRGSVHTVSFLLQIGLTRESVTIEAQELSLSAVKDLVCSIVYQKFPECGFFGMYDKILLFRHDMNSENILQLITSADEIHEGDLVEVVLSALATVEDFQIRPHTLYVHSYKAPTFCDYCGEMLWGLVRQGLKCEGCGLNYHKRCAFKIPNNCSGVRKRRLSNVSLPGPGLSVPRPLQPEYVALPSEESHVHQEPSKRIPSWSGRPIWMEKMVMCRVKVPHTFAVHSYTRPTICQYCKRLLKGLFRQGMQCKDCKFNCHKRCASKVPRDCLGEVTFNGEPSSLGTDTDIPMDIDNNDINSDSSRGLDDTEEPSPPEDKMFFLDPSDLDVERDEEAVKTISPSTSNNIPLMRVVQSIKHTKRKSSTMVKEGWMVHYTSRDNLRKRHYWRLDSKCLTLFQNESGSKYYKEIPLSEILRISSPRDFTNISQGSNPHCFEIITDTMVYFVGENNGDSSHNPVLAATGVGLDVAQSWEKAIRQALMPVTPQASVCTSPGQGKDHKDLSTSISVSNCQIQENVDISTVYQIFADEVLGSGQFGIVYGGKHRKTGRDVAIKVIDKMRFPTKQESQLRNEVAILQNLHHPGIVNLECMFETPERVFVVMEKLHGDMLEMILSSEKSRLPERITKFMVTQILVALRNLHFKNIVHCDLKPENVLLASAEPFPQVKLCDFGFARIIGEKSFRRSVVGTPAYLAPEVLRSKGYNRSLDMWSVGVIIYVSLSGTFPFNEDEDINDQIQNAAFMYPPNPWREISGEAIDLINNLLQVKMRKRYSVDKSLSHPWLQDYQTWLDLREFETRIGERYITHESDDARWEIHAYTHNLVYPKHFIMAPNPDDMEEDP
Assay: Kinobeads pulldown, full dose-response (eight doses);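 note: competition with Kinobeads ε after inhibitor preincubation in lysate (5 mg/ml protein) for 45 min at 4 °C, DMSO control, doses 0.3–1,000 nM, label-free LC–MS/MS quantification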
Settings: target PRKD3; read-out: apparent Kd
measured_quantity: Kd (µM)

| smiles_string | quantity_unit | readout_value |
| --- | --- | --- |
| Cn1cc(-c2nc(N[C@@H]3CCCC[C@@H]3N)c(F)c3c2C(=O)NC3)cn1 | µM | 1.18 |

----------
Target: LATS1 (Homo sapiens, UniProt O95835)
Construct: endogenous in cells
Sequence (O95835 1-1130): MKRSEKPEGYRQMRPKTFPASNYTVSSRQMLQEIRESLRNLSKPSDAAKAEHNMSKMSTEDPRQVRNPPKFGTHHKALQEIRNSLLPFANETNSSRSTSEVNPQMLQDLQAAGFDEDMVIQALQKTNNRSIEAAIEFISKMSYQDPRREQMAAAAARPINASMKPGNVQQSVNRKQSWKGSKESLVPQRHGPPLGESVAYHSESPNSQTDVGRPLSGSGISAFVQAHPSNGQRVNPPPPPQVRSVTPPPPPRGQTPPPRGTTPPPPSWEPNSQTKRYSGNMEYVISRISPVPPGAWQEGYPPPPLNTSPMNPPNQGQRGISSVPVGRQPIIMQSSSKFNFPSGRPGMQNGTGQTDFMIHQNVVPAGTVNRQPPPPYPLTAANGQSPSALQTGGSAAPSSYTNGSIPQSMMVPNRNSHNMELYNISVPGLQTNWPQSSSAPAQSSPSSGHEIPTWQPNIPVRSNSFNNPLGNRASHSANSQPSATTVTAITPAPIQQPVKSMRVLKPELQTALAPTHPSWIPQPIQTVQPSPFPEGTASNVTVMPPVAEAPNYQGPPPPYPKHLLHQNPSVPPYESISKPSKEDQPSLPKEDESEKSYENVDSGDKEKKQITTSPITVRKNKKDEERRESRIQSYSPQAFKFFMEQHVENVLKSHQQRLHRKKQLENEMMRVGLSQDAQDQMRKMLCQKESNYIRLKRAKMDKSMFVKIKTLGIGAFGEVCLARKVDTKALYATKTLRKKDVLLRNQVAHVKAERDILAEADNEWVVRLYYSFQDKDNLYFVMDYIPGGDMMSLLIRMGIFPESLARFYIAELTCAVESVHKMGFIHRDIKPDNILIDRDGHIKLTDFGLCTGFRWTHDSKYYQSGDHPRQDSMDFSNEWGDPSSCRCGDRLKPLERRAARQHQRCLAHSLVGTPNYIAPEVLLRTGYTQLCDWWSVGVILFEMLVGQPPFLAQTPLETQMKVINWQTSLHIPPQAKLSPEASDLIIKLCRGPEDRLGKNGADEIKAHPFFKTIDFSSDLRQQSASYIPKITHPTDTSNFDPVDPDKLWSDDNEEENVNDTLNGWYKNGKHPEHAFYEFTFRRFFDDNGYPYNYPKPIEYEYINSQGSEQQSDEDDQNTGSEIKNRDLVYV
Assay: Kinobeads full dose-response competition binding: LATS1
Conditions: Gene Name LATS1; eight-dose curve fit, doses in nM
Reported EC50 values for the following compounds.

| compound | EC50 |
| --- | --- |
| CCn1c(-c2nonc2N)nc2c(C#CC(C)(C)O)nc(OCCNC)cc21 [GSK949675A] | 238 nM |
| CCn1c(-c2nonc2N)nc2c(C#CC(C)(C)O)nc(OCCN)cc21 [GSK902056A] | 87.4 nM |
